Tested on: SKBR3-P
Test: area under growth-rate inhibition curve (AUC GRI) (dimensionless (GR-based AUC)); higher = less growth inhibition
Conditions: exposure time: 72 h; concentrations: 0.1, 1, 10 uM
property measured: area under growth-rate inhibition curve
Reply briefly: the number, and no unit.

Consider the reported area under growth-rate inhibition curve for these molecules:
Tested system SKBR3-P; area under growth-rate inhibition curve recorded for CN(C)CCC(c1ccc(Br)cc1)c1ccccn1.O=C(O)/C=C\C(=O)O (stereo not drawn) [Brompheniramine hydrogen maleate] was 0.998

Tested system SKBR3-P; area under growth-rate inhibition curve recorded for CC(=O)SCC(Cc1ccccc1)C(=O)NCC(=O)OCc1ccccc1 (stereo not drawn) [Racecadotril] was 1.01

Tested system SKBR3-P; area under growth-rate inhibition curve recorded for CCOC(=O)[C@H](CCc1ccccc1)N[C@H]1CCCN2CCC[C@@H](C(=O)O)N2C1=O.O [Cilazapril Monohydrate] was 1.04

Tested system SKBR3-P; area under growth-rate inhibition curve recorded for CC(C)C1NC(=O)C(CCCCN)NC(=O)C(Cc2c[nH]c3ccccc23)NC(=O)C(Cc2ccc(O)cc2)NC(=O)C(NC(=O)C(N)Cc2ccc3ccccc3c2)CSSCC(C(=O)NC(C(N)=O)C(C)O)NC1=O (stereo not drawn) [lanreotide] was 1.01

Tested system SKBR3-P; area under growth-rate inhibition curve recorded for CC(=O)OCC[N+](C)(C)C.[Cl-] [Acetylcholine Chloride] was 1.02

Continuing:
Tested system SKBR3-P; area under growth-rate inhibition curve recorded for NCCCC[C@H](N[C@@H](CCc1ccccc1)C(=O)O)C(=O)N1CCC[C@H]1C(=O)O.O.O [Lisinopril] was 1.02

Tested system SKBR3-P; area under growth-rate inhibition curve recorded for CNC(=O)[C@@H](c1ccccc1)N1CCc2cc(OC)c(OC)cc2[C@@H]1CCc1ccc(C(F)(F)F)cc1.Cl [Almorexant HCl] was 0.977

Tested system SKBR3-P; area under growth-rate inhibition curve recorded for CN1CCN(c2nc3ccccc3nc2Cl)CC1 was 0.987

The reported measurements were obtained from the supplement of paper PMC9763283.
